target: human α1H T-type channels (Homo sapiens, UniProt O95180); experiment: T-type calcium channel block, whole cell patch clamp, α1H; details: HEK cells stably expressing human α1H; mainly non-inactivated protocol; values above 10,000 nM represented as 10000

COMPOUND: CN(C(=O)CN[C@H]1CC[C@@H](S(=O)(=O)c2cccc(C(F)(F)F)c2)CC1)C(C)(C)C
LIMIT_OPERATOR: >
IC50, µM: 10

COMPOUND: O=C(N[C@H]1CC[C@H](CS(=O)(=O)c2cccc(C(F)(F)F)c2)CC1)c1cc(-c2ccc(F)cc2)n[nH]1
LIMIT_OPERATOR: >
IC50, µM: 10

COMPOUND: CC1(S(=O)(=O)c2cccc(C(F)(F)F)c2)CCC(NC(=O)c2ccc(C(F)(F)F)nc2)CC1 (stereo not drawn)
LIMIT_OPERATOR: =
IC50, µM: 7.4

COMPOUND: O=C(NC1CCC(S(=O)(=O)c2cccc(C(F)(F)F)c2)CC1)c1ccc(C(F)(F)F)nc1 (stereo not drawn)
LIMIT_OPERATOR: =
IC50, µM: 6.71

COMPOUND: O=C(N[C@H]1CC[C@@H](CS(=O)(=O)c2cccc(C(F)(F)F)c2)CC1)c1ccc(Cl)c(OC(F)(F)F)c1
LIMIT_OPERATOR: =
IC50, µM: 1.02

COMPOUND: CN(CCC(C)(C)S(=O)(=O)c1cccc(C(F)(F)F)c1)CC(=O)NC(C)(C)C
LIMIT_OPERATOR: >
IC50, µM: 10

###

biological target: UniProt:O43497; assay: T-type calcium channel block, whole cell patch clamp, α1G; conditions: HEK cells stably expressing human α1G; mainly non-inactivated protocol; values above 10,000 nM represented as 10000
pIC50: −log10 of the molar value.
Overview of recorded pIC50 for various molecules

STRUCTURE_AS_SMILES: O=C(NC[C@H]1C[C@H](S(=O)(=O)c2cccc(C(F)(F)F)c2)C1)c1ccc(Cl)c(Cl)c1
pIC50: < 5.00
--
STRUCTURE_AS_SMILES: CN(C(=O)CN[C@H]1CC[C@H](CS(=O)(=O)c2cccc(C(F)(F)F)c2)CC1)C(C)(C)C
pIC50: < 5.00
--
STRUCTURE_AS_SMILES: O=C(Nc1ccc(Oc2ccc(C(F)(F)F)nc2)nc1)[C@H]1C[C@H](S(=O)(=O)c2cccc(C(F)(F)F)c2)C1
pIC50: < 5.00

###

target: T-type calcium channel (Homo sapiens); experiment: T-type channel blocking, FLIPR data (Table 6); assay type: cell-based; details: CAv3.2, ratio closed/inactivated IC50
Catalogue of CAv3.2 IC50 Ratio closed/inact. readings, one per entry.

MOLECULE: CC(C)(C1CC(CNC(=O)c2ccc(Cl)c(OC(F)(F)F)c2)C1)S(=O)(=O)c1cccc(C(F)(F)F)c1 (stereo not drawn)
CAv3.2 IC50 Ratio closed/inact.: 7.7
--
MOLECULE: CC(C)([C@H]1C[C@H](NC(=O)c2cncc(C(F)(F)F)c2)C1)S(=O)(=O)c1cccc(C(F)(F)F)c1
CAv3.2 IC50 Ratio closed/inact.: 0.9
--
MOLECULE: CC(C)([C@H]1C[C@@H](NC(=O)c2ccnc(C(F)(F)F)n2)C1)S(=O)(=O)c1cccc(OC(F)(F)F)c1
CAv3.2 IC50 Ratio closed/inact.: 3.4

###

Measured pIC50 accompanies every entry in the list below.
biological target: human α1H T-type channels (Homo sapiens); assay: T-type calcium channel block, whole cell patch clamp, α1H; conditions: HEK cells stably expressing human α1H; mainly non-inactivated protocol; values above 10,000 nM represented as 10000
pIC50: −log10 of the molar value.

COMPOUND: O=S(=O)(NC[C@H]1C[C@H](S(=O)(=O)c2cccc(C(F)(F)F)c2)C1)c1ccc(C(F)(F)F)cc1
MEASURED_ON: human α1H T-type channels (Homo sapiens)
pIC50: 5.98
//
COMPOUND: O=C(Nc1cncc(Cl)c1)[C@H]1C[C@@H](S(=O)(=O)c2cccc(C(F)(F)F)c2)C1
MEASURED_ON: human α1H T-type channels (Homo sapiens)
pIC50: 6.15
//
COMPOUND: CC(C)(CNC(=O)c1ccc(Oc2ccc(F)cc2)cc1)S(=O)(=O)c1cccc(C(F)(F)F)c1
MEASURED_ON: human α1H T-type channels (Homo sapiens)
pIC50: 6.04
//
COMPOUND: O=C(N[C@H]1CC[C@@](F)(S(=O)(=O)c2cc(F)cc(C(F)(F)F)c2)CC1)c1ccc(F)c(C(F)(F)F)c1
MEASURED_ON: human α1H T-type channels (Homo sapiens)
pIC50: 5.88
//
COMPOUND: CN(C(=O)CNC1CCC(S(=O)(=O)c2cccc(C(F)(F)F)c2)CC1)C(C)(C)C (centres unmarked)
MEASURED_ON: human α1H T-type channels (Homo sapiens)
pIC50: 5.92

###

target: Human Cav 2.2 channels (Homo sapiens); experiment: Fluorescent assay for CaV2.2 channels using potassium depolarization (VIPR/FLIPR); type: cell-based; details: FLIPR data; closed state; read-out: CAv2.2 IC50 Closed
Sequence (Q00975 whole entry): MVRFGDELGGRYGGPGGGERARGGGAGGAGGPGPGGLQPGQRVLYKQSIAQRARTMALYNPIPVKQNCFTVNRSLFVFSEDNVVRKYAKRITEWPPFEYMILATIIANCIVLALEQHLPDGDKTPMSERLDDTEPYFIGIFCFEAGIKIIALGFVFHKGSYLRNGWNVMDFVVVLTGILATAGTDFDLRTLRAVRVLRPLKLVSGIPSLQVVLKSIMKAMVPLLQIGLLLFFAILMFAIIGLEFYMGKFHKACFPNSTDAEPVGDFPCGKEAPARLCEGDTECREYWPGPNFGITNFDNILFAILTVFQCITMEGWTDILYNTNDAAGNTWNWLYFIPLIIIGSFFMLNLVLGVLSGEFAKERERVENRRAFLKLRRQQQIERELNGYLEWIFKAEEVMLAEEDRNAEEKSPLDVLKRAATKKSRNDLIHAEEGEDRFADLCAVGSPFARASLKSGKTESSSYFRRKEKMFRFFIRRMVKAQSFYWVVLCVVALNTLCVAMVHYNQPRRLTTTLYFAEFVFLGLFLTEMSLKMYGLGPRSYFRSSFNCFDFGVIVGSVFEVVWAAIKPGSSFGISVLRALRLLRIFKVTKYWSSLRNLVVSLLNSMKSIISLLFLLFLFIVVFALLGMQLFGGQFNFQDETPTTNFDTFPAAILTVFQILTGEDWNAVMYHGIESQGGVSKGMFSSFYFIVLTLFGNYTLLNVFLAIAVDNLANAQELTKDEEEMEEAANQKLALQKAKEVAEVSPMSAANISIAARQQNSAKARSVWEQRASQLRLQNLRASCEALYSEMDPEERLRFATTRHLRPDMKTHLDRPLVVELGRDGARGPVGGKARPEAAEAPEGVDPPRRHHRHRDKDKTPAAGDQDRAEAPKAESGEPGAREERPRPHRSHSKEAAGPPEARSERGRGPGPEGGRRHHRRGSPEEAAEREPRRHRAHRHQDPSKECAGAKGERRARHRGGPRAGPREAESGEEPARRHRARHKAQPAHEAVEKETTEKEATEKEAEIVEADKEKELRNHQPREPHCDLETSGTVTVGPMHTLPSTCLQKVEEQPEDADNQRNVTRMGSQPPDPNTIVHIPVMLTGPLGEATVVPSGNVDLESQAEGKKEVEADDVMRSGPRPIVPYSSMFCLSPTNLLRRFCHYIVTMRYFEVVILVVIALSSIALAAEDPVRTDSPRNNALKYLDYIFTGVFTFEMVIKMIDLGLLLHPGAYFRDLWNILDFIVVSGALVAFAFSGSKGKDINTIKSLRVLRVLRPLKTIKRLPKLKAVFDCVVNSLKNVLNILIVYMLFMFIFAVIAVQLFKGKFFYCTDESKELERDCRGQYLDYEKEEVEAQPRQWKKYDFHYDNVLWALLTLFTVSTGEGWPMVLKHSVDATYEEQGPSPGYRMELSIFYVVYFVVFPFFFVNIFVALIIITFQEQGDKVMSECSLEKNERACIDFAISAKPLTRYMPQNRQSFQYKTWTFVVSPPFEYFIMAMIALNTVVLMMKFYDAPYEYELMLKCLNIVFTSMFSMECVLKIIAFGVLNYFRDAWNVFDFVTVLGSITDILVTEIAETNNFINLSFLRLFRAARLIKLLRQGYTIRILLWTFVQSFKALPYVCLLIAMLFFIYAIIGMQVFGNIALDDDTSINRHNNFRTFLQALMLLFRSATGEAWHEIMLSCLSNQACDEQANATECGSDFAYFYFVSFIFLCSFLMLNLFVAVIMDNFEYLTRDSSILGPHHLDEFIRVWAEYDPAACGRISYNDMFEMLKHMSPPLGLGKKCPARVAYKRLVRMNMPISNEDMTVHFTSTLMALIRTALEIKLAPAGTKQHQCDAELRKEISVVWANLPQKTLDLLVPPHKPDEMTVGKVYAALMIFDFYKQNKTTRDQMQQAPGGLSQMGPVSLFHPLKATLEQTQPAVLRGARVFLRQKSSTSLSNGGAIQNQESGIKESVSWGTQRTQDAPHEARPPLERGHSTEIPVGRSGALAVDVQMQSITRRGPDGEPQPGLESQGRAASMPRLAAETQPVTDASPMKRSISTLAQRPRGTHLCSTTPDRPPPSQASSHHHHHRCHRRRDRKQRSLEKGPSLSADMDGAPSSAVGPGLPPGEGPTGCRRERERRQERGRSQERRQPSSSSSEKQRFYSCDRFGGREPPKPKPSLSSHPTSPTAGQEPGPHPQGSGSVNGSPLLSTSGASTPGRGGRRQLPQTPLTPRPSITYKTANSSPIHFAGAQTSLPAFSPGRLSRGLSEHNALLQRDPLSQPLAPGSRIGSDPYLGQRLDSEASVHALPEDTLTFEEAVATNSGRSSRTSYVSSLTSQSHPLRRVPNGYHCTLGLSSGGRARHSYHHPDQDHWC
Sequence (P54289 25-1103 partner): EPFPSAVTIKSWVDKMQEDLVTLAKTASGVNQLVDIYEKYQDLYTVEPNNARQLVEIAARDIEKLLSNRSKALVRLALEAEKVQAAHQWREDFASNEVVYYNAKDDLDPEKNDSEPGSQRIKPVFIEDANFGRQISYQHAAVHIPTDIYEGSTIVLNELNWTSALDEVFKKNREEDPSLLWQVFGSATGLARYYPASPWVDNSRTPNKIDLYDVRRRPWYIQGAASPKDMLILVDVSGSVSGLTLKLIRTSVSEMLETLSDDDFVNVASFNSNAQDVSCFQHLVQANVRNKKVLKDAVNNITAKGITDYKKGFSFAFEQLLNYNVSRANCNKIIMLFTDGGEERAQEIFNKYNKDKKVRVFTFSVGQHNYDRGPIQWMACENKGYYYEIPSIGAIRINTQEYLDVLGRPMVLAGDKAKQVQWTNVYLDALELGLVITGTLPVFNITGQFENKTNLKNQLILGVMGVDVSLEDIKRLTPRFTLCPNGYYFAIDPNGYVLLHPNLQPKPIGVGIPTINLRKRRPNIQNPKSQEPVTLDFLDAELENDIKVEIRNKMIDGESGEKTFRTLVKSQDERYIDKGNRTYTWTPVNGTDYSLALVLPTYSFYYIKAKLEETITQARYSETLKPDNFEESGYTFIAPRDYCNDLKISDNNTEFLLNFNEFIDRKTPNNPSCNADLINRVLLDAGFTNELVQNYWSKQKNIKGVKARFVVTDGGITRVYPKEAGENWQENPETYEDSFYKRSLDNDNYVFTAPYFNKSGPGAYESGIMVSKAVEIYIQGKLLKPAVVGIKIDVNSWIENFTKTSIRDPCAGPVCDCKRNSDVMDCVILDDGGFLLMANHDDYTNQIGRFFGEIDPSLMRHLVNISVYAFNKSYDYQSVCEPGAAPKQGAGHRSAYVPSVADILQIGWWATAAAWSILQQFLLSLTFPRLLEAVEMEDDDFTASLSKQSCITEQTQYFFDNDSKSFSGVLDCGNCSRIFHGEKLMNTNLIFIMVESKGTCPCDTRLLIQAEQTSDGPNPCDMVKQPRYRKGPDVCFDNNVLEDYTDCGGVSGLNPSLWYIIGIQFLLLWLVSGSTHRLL
Sequence (P54284 whole entry partner): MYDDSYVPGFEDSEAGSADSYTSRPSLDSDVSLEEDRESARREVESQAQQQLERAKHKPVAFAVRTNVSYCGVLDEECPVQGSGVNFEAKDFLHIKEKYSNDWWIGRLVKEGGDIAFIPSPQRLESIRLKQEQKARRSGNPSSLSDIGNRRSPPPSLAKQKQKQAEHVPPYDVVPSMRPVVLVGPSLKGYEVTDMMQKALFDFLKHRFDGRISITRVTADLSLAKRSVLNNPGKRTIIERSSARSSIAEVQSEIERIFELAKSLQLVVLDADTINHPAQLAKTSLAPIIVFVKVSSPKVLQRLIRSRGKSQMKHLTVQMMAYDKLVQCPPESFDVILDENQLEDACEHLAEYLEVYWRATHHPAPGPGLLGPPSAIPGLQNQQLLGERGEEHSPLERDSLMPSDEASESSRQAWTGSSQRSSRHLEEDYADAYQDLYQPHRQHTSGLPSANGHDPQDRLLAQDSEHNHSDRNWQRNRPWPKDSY
pIC50: −log10 of the molar value.

MOLECULE: CC(C)([C@H]1C[C@@H](NC(=O)c2ccc(OCC(F)(F)F)nc2)C1)S(=O)(=O)c1cccc(C(F)(F)F)c1 [Compound 582]
MEASURED_ON: Human Cav 2.2 channels (Homo sapiens)
pIC50: 5.54
--
MOLECULE: CC(C)([C@H]1C[C@H](NS(=O)(=O)c2ccc(C(F)(F)F)nc2)C1)S(=O)(=O)c1cc(F)cc(C(F)(F)F)c1 [Compound 609]
MEASURED_ON: Human Cav 2.2 channels (Homo sapiens)
pIC50: 5.38
--
MOLECULE: CC(C)([C@H]1C[C@@H](CNC(=O)c2ccnc(C(F)(F)F)c2)C1)S(=O)(=O)c1cccc(C(F)(F)F)c1 [Compound 687]
MEASURED_ON: Human Cav 2.2 channels (Homo sapiens)
pIC50: 5.39
--
MOLECULE: CNC1(CC(=O)N[C@H]2C[C@@H](C(C)(C)S(=O)(=O)c3cc(F)cc(C(F)(F)F)c3)C2)CCCCC1 [Compound 658]
MEASURED_ON: Human Cav 2.2 channels (Homo sapiens)
pIC50: 5.00

###

As shown below, each of these compounds has a reported IC50 value.
biological target: UniProt:Q13936; assay: FLIPR data, CAv1.2 channel blocking (Table 6); format: cell-based; settings: inactivated state, read-out: CAv1.2 IC50 Inact.
VALUE_TYPE: IC50

COMPOUND: CC(C)([C@H]1C[C@H](NC(=O)CC2(N)CCCCC2)C1)S(=O)(=O)c1cc(F)cc(C(F)(F)F)c1
MEASURED_ON: UniProt:Q13936
RESULT_VALUE: ≥ 10 µM
//
COMPOUND: CS(=O)(=O)c1cc(C(F)(F)F)cnc1C(=O)NC[C@H]1C[C@H](S(=O)(=O)c2cc(F)cc(C(F)(F)F)c2)C1
MEASURED_ON: UniProt:Q13936
RESULT_VALUE: ≥ 10 µM
//
COMPOUND: NC1(CC(=O)NC[C@H]2C[C@H](S(=O)(=O)c3cc(F)cc(C(F)(F)F)c3)C2)CCCCC1
MEASURED_ON: UniProt:Q13936
RESULT_VALUE: ≥ 10 µM
//
COMPOUND: CC(C)([C@H]1C[C@@H](CNC(=O)c2ncc(C(F)(F)F)cc2S(C)(=O)=O)C1)S(=O)(=O)c1cccc(C(F)(F)F)c1
MEASURED_ON: UniProt:Q13936
RESULT_VALUE: ≥ 10 µM
//
COMPOUND: CS(=O)(=O)c1cc(Cl)ccc1C(=O)NC[C@H]1C[C@H](S(=O)(=O)c2cccc(OC(F)(F)F)c2)C1
MEASURED_ON: UniProt:Q13936
RESULT_VALUE: ≥ 10 µM
//
COMPOUND: CC(C)(C1CC(CNC(=O)c2ccc(F)c(Cl)c2)C1)S(=O)(=O)c1cccc(C(F)(F)F)c1 (stereo not drawn)
MEASURED_ON: UniProt:Q13936
RESULT_VALUE: 0.3 µM
//
COMPOUND: O=C(NC[C@H]1C[C@H](S(=O)(=O)c2cccc(OC(F)(F)F)c2)C1)c1ccc(Cl)cn1
MEASURED_ON: UniProt:Q13936
RESULT_VALUE: 6.64 µM
//
COMPOUND: O=C(NC[C@H]1C[C@H](S(=O)(=O)c2cccc(C(F)(F)F)c2)C1)c1ccc(C(F)(F)F)nc1
MEASURED_ON: UniProt:Q13936
RESULT_VALUE: ≥ 10 µM
//
COMPOUND: CC(C)([C@H]1C[C@H](NC(=O)c2ccc(Cl)cn2)C1)S(=O)(=O)c1cccc(C(F)(F)F)c1
MEASURED_ON: UniProt:Q13936
RESULT_VALUE: 4.57 µM
